Tested on: human Na,K-ATPase α2β3FXYD1
assay details: biochemical
Assay type: biochemical
Here, each record is paired with measured Selectivity Ki ratio α1β1/α2β3 data.
Just the number.

Illustrative cases are given below, each with its answer.
INSERT INTO measurements (compound, measured) VALUES
  ('CC1CN(CCS(N)(=O)=O)CCC(O[C@@H]2C(C)O[C@@H](OC3C(C)OC(O[C@H]4CC[C@@]5(C)C(CCC6C5CC(O)[C@]5(C)[C@@H](C7=CC(=O)OC7)CC[C@]65O)C4)C[C@@H]3O)C[C@@H]2O)O1 (stereo in doubt) [DESA]', 15),
  ('CC1CN(C)CCC(O[C@@H]2[C@H](C)O[C@@H](O[C@@H]3[C@H](C)O[C@@H](O[C@H]4CC[C@@]5(C)C(CCC6C5C[C@H](O)[C@]5(C)[C@@H](C7=CC(=O)OC7)CC[C@]65O)C4)C[C@@H]3O)C[C@@H]2O)O1 (stereo partly shown) [DMe]', 9.5),
  ('CC1CN(C2CCCC2)CCC(O[C@@H]2C(C)O[C@@H](OC3C(C)OC(O[C@H]4CC[C@@]5(C)C(CCC6C5CC(O)[C@]5(C)[C@@H](C7=CC(=O)OC7)CC[C@]65O)C4)C[C@@H]3O)C[C@@H]2O)O1 (stereo in doubt) [DcPe]', 5),
  ('CC1CN(C[Si](C)(C)C)CCC(OC2C(O)CC(OC3C(O)CC(OC4CCC5(C)C(CCC6C5CC(O)C5(C)C(C7=CC(=O)OC7)CCC65O)C4)OC3C)OC2C)O1 (stereo not shown) [DTMS]', 6.5),
  ('CCCN1CCC(O[C@@H]2[C@H](C)O[C@@H](O[C@@H]3[C@H](C)O[C@@H](O[C@H]4CC[C@@]5(C)C(CCC6C5C[C@H](O)[C@]5(C)[C@@H](C7=CC(=O)OC7)CC[C@]65O)C4)C[C@@H]3O)C[C@@H]2O)OC(C)C1 (stereo partly shown) [DP]', 8.8);

**Q:** Consider the compound shown here: CC1CN(CC2CC2)CCC(O[C@@H]2C(C)O[C@@H](O[C@@H]3C(C)O[C@@H](O[C@H]4CC[C@@]5(C)C(CCC6C5CC(O)[C@]5(C)[C@@H](C7=CC(=O)OC7)CC[C@]65O)C4)C[C@@H]3O)C[C@@H]2O)O1 (stereo in doubt) [DMcP] What is its recorded Selectivity Ki ratio α1β1/α2β3?
**A:** 22

**Q:** Consider the compound shown here: CCN1CCC(O[C@@H]2[C@H](C)O[C@@H](O[C@@H]3[C@H](C)O[C@@H](O[C@H]4CC[C@@]5(C)C(CCC6C5C[C@H](O)[C@]5(C)[C@@H](C7=CC(=O)OC7)CC[C@]65O)C4)C[C@@H]3O)C[C@@H]2O)OC(C)C1 (stereo partly shown) [DEt] What is its recorded Selectivity Ki ratio α1β1/α2β3?
**A:** 9.5

* * *

target under test: human Na,K-ATPase α2β1FXYD1 (Homo sapiens, UniProt P50993)
assay details: biochemical
Type: biochemical
Here, each record is paired with measured Selectivity Ki ratio α1β1/α2β1 data.
Just the number.

INSERT INTO measurements (molecule, measured) VALUES
  ('CCN1CCC(O[C@@H]2[C@H](C)O[C@@H](O[C@@H]3[C@H](C)O[C@@H](O[C@H]4CC[C@@]5(C)C(CCC6C5C[C@H](O)[C@]5(C)[C@@H](C7=CC(=O)OC7)CC[C@]65O)C4)C[C@@H]3O)C[C@@H]2O)OC(C)C1 (stereo partly shown)', 5.9),
  ('CC1CN(C(C)(C)C)CCC(O[C@@H]2[C@H](C)O[C@@H](O[C@@H]3[C@H](C)O[C@@H](O[C@H]4CC[C@@]5(C)C(CCC6C5C[C@H](O)[C@]5(C)[C@@H](C7=CC(=O)OC7)CC[C@]65O)C4)C[C@@H]3O)C[C@@H]2O)O1 (stereo partly shown)', 6.2),
  ('CC1CN(C)CCC(O[C@@H]2[C@H](C)O[C@@H](O[C@@H]3[C@H](C)O[C@@H](O[C@H]4CC[C@@]5(C)C(CCC6C5C[C@H](O)[C@]5(C)[C@@H](C7=CC(=O)OC7)CC[C@]65O)C4)C[C@@H]3O)C[C@@H]2O)O1 (stereo partly shown)', 6.7);

Turning now to a further record.
**Q:** Enter reported Selectivity Ki ratio α1β1/α2β1 observed with human Na,K-ATPase α2β1FXYD1 (Homo sapiens, UniProt P50993) for CC1CN(Cc2ccccc2)CCC(O[C@@H]2C(C)O[C@@H](OC3C(C)OC(O[C@H]4CC[C@@]5(C)C(CCC6C5CC(O)[C@]5(C)[C@@H](C7=CC(=O)OC7)CC[C@]65O)C4)C[C@@H]3O)C[C@@H]2O)O1 (stereo in doubt)
**A:** 5.7
